- test.system: P2X4 (Homo sapiens, UniProt Q99571)
- assay.remarks: Assay A: human P2X4 receptor cell line, FLIPR calcium assay (Fluo-8, agonist Bz-ATP at EC80)
- Format: cell-based
- Set-up: host or cells: HEK 293 (recombinant, constitutively expressing; with mitochondrial photina in Assay B)
- measurement.parameters: HEK human P2X4 cells, Fluo-8 FLIPR, Bz-ATP at EC80; average values
Group membership follows IC50 per the scheme lower segment: < 40 nM; middle segment: ≥ 40 nM and < 400 nM; upper segment: ≥ 400 nM

>>> group_label("NS(=O)(=O)c1cc(NC(=O)Cc2ccccc2Cl)c(Cl)cc1Oc1cccc(Cl)c1")
"upper segment"
>>> group_label("CC1(C)CC(Oc2ccc(NC(=O)Cc3ccccc3Cl)cc2S(N)(=O)=O)CC(C)(C)O1")
"upper segment"
>>> group_label("N#Cc1cc(Oc2ccc(NC(=O)Cc3ccccc3Cl)cc2S(N)(=O)=O)ccc1F")
"lower segment"
>>> group_label("COc1ccc(CC(=O)Nc2ccc(Oc3ccc(Cl)cc3)c(S(N)(=O)=O)c2)c(Cl)c1")
"upper segment"
>>> group_label("NS(=O)(=O)c1cc(NC(=O)Cc2ccccc2Cl)ccc1OCC1(O)CCCCC1")
"upper segment"
>>> group_label("CC1(C)CC(COc2ccc(NC(=O)Cc3ccccc3Cl)cc2S(N)(=O)=O)CCO1 (stereo not shown)")
"upper segment"
>>> group_label("NS(=O)(=O)c1cc(NC(=O)Cc2ccccc2Cl)ccc1Oc1cnc(Cl)c(Cl)c1")
"middle segment"
>>> group_label("COc1cc(C)cc(Cl)c1CC(=O)Nc1ccc(Oc2cccc(Cl)c2)c(S(N)(=O)=O)c1")
"middle segment"
>>> group_label("COc1cccc(CC(=O)Nc2ccc(Oc3cccc(Cl)c3)c(S(N)(=O)=O)c2)c1")
"middle segment"
>>> group_label("NS(=O)(=O)c1cc(NC(=O)Cc2ccccc2Cl)ccc1Oc1cccc(C(F)F)c1")
"lower segment"
>>> group_label("NS(=O)(=O)c1cc(NC(=O)Cc2ccccc2Cl)ccc1Oc1ccc(N2CCCCC2=O)cc1")
"upper segment"
>>> group_label("NS(=O)(=O)c1cc(NC(=O)Cc2cccc(F)c2Cl)ccc1Oc1cccc(Cl)c1")
"lower segment"
>>> group_label("NS(=O)(=O)c1cc(NC(=O)Cc2ccccc2Cl)ccc1Oc1cccc(C(=O)NC2CC2)c1")
"middle segment"
>>> group_label("N#Cc1cccc(COc2ccc(NC(=O)Cc3ccccc3Cl)cc2S(N)(=O)=O)c1")
"middle segment"
>>> group_label("COc1ccc(CC(=O)Nc2ccc(Oc3ccc(Cl)cc3)c(S(N)(=O)=O)c2)cc1")
"upper segment"
>>> group_label("NS(=O)(=O)c1cc(NC(=O)Cc2ccccc2Br)ccc1Oc1cccc(Cl)c1")
"lower segment"
>>> group_label("Cc1ccc(F)c(CC(=O)Nc2ccc(Oc3cccc(Cl)c3)c(S(N)(=O)=O)c2)c1Cl")
"middle segment"
>>> group_label("NS(=O)(=O)c1cc(NC(=O)Cc2ccccc2Cl)ccc1Oc1ccc(F)cc1")
"lower segment"
>>> group_label("NS(=O)(=O)c1cc(NC(=O)Cc2ccccc2Cl)ccc1OCc1ccncc1")
"middle segment"

* * *

- test.system: P2X4 (Homo sapiens)
- Sequence (Q99571 1-388): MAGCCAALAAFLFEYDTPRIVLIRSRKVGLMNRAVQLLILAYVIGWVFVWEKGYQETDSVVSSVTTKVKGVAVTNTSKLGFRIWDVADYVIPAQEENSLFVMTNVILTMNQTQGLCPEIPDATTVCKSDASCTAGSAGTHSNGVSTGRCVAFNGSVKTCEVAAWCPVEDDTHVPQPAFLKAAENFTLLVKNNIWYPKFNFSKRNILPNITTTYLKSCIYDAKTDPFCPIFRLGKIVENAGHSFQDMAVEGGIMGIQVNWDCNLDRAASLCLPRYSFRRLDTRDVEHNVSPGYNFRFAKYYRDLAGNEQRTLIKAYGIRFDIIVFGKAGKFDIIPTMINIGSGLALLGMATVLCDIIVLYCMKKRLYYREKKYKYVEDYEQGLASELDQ
- assay.remarks: Assay B: human P2X4 receptor cell line, mitochondrial photina luminescence (agonist Bz-ATP at EC50)
- Assay type: cell-based
- Set-up: host or cells: HEK 293 (recombinant, constitutively expressing; with mitochondrial photina in Assay B)
- measurement.parameters: HEK human P2X4 cell line, photina luminescence, agonist Bz-ATP at EC50, average
pIC50: −log10 of the molar value.
# pIC50 per record follows
recorded.metric: pIC50

>>> obs_value("NS(=O)(=O)c1cc(NC(=O)Cc2c(Cl)ccc(C(F)(F)F)c2Cl)ccc1Oc1cccc(Cl)c1")
5.98
>>> obs_value("C=C(C)c1cccc(Oc2ccc(NC(=O)Cc3ccccc3Cl)cc2S(N)(=O)=O)c1")
6.01
>>> obs_value("Cn1nccc1Oc1ccc(NC(=O)Cc2ccccc2Cl)cc1S(N)(=O)=O")
6.63
>>> obs_value("NS(=O)(=O)c1cc(NC(=O)Cc2ccccc2)ccc1Oc1cccc(C(F)(F)F)c1")
6.63
>>> obs_value("NS(=O)(=O)c1cc(NC(=O)Cc2cc(Br)ccc2Cl)ccc1Oc1cccc(Cl)c1")
6.33
>>> obs_value("Cc1nc(C2CC2)ncc1Oc1ccc(NC(=O)Cc2ccccc2Cl)cc1S(N)(=O)=O")
5.50
>>> obs_value("CS(=O)(=O)c1ccc(COc2ccc(NC(=O)Cc3ccccc3Cl)cc2S(N)(=O)=O)cc1")
5.90
>>> obs_value("COc1ccccc1Oc1ccc(NC(=O)Cc2ccc(C(F)(F)F)cc2)cc1S(N)(=O)=O")
5.68
>>> obs_value("NS(=O)(=O)c1cc(NC(=O)Cc2ccccc2Cl)ccc1Oc1cccc(F)c1")
7.37
>>> obs_value("COc1ccc(CC(=O)Nc2ccc(Oc3cccc(Cl)c3)c(S(N)(=O)=O)c2)cc1")
6.77
>>> obs_value("COc1cccc(COc2ccc(NC(=O)Cc3ccccc3Cl)cc2S(N)(=O)=O)c1")
7.36
>>> obs_value("Cc1ccc(F)c(CC(=O)Nc2ccc(Oc3cccc(Cl)c3)c(S(N)(=O)=O)c2)c1Cl")
6.71
>>> obs_value("NS(=O)(=O)c1cc(NC(=O)Cc2cccc(Cl)c2)ccc1Oc1cccc(Cl)c1")
6.34
>>> obs_value("NS(=O)(=O)c1cc(NC(=O)Cc2ccccc2Cl)ccc1OCc1ccncn1")
6.49
>>> obs_value("NS(=O)(=O)c1cc(NC(=O)Cc2ccccc2Cl)ccc1Oc1cccc(N2CCCCC2=O)c1")
6.06
>>> obs_value("N#Cc1cc(C#N)cc(Oc2ccc(NC(=O)Cc3ccccc3Cl)cc2S(N)(=O)=O)c1")
5.17
>>> obs_value("NS(=O)(=O)c1cc(NC(=O)Cc2ccccc2Cl)ccc1Oc1ncccc1Cl")
6.11
